experiment: Inhibition of Pseudomonas aeruginosa topoisomerase 4 decatenation incubated for 30 mins in presence of ATP by ethidium bromide staining based analysis

{"Smiles Text": "CO[C@@H]1[C@@H](OC(N)=O)[C@@H](O)[C@H](Oc2ccc3c(O)c(NC(=O)c4ccc(O)c(CC=C(C)C)c4)c(=O)oc3c2C)OC1(C)C", "Unit Tag": "µM", "IC50": 8.37}

---

tested on: Enterobacter cloacae; assay: Antibacterial activity against Enterobacter cloacae subsp. cloacae ATCC 13047 assessed as bacterial growth inhibition incubated for 18 hrs by microplate reader based analysis; type: functional
Calls of active or inactive are those of the source. The calls are words filed in the database; no cut-off is given here.

{"Smiles Text": "Cc1[nH]c(C(=O)Nc2nc3c(N4CCNCC4)cc(C(=O)O)cc3s2)c(Cl)c1Cl", "Activity": "inactive"}
{"Smiles Text": "Cc1[nH]c(C(=O)Nc2nc3c(CN4CCOCC4)cc(C(=O)O)cc3s2)c(Cl)c1Cl", "Activity": "inactive"}
{"Smiles Text": "Cc1[nH]c(C(=O)Nc2nc3c(N4CC[C@H](N(C)C)C4)cc(C(=O)O)cc3s2)c(Cl)c1Cl", "Activity": "inactive"}
{"Smiles Text": "Cc1[nH]c(C(=O)Nc2nc3c(N4CC[C@H](N)C4)cc(C(=O)O)cc3s2)c(Cl)c1Cl", "Activity": "inactive"}
{"Smiles Text": "Cc1[nH]c(C(=O)Nc2nc3c(N4CCC(O)CC4)cc(C(=O)O)cc3s2)c(Cl)c1Cl", "Activity": "inactive"}
